B1: library; a variant is named by its letters at N, in order (parent)
chain: GCUGUCACCGGAAUACCAGCAUCGUCUUGAUGCCCUUGGAAGUCCGGUCUGAUGAGUCCNNNNNGGACGAAACAGC

# Variants of: B1
# testName: normalized RNA/DNA level with ligand (relative to sTRSVctl = 100) (log10 (% of sTRSVctl)); higher = less ribozyme self-cleavage, higher mRNA level
# assayContext: ligand concentration (+) RNA-Seq: 5 mM, HEK293T, reporter: mCherry (pCS4076), ligand present: yes
assayMetric: normalized RNA/DNA level with ligand (log10)

[
  {
    "mutantCode": "AGCCA",
    "dataValue": 1.98
  },
  {
    "mutantCode": "CACAA",
    "dataValue": 2.01
  },
  {
    "mutantCode": "AUACG",
    "dataValue": 2.01
  },
  {
    "mutantCode": "GAAUA",
    "dataValue": 1.85
  },
  {
    "mutantCode": "CCGGA",
    "dataValue": 2.08
  },
  {
    "mutantCode": "AAUCU",
    "dataValue": 1.94
  },
  {
    "mutantCode": "AUACA",
    "dataValue": 1.98
  },
  {
    "mutantCode": "AGAAC",
    "dataValue": 1.92
  },
  {
    "mutantCode": "UGUGC",
    "dataValue": 2.04
  },
  {
    "mutantCode": "CUGUA",
    "dataValue": 2.08
  },
  {
    "mutantCode": "ACGUA",
    "dataValue": 2.01
  },
  {
    "mutantCode": "CAACA",
    "dataValue": 1.98
  },
  {
    "mutantCode": "ACCCG",
    "dataValue": 2
  },
  {
    "mutantCode": "GAAUC",
    "dataValue": 1.96
  },
  {
    "mutantCode": "CGGGC",
    "dataValue": 1.94
  },
  {
    "mutantCode": "UUGCC",
    "dataValue": 1.99
  },
  {
    "mutantCode": "UCAGA",
    "dataValue": 1.96
  },
  {
    "mutantCode": "UACCG",
    "dataValue": 2.01
  },
  {
    "mutantCode": "UCAGU",
    "dataValue": 2.01
  },
  {
    "mutantCode": "UUUUU",
    "dataValue": 2.01
  },
  {
    "mutantCode": "UACCC",
    "dataValue": 2.02
  },
  {
    "mutantCode": "ACACC",
    "dataValue": 1.99
  },
  {
    "mutantCode": "UGCCA",
    "dataValue": 1.9
  },
  {
    "mutantCode": "UUCUU",
    "dataValue": 2.03
  },
  {
    "mutantCode": "UAAUU",
    "dataValue": 2
  },
  {
    "mutantCode": "GUGAU",
    "dataValue": 2
  },
  {
    "mutantCode": "UUAAC",
    "dataValue": 1.95
  },
  {
    "mutantCode": "GAUGG",
    "dataValue": 2
  },
  {
    "mutantCode": "ACACU",
    "dataValue": 2.04
  },
  {
    "mutantCode": "UAUGG",
    "dataValue": 1.97
  },
  {
    "mutantCode": "AACCG",
    "dataValue": 2
  },
  {
    "mutantCode": "UGGAC",
    "dataValue": 2
  },
  {
    "mutantCode": "CAUGU",
    "dataValue": 1.98
  },
  {
    "mutantCode": "GCAGA",
    "dataValue": 2.04
  },
  {
    "mutantCode": "CUAAA",
    "dataValue": 2.02
  },
  {
    "mutantCode": "GACGU",
    "dataValue": 1.93
  },
  {
    "mutantCode": "AACGA",
    "dataValue": 1.96
  },
  {
    "mutantCode": "GCACU",
    "dataValue": 1.97
  },
  {
    "mutantCode": "AUGCC",
    "dataValue": 2
  },
  {
    "mutantCode": "CUAUA",
    "dataValue": 1.97
  },
  {
    "mutantCode": "AAUCA",
    "dataValue": 1.9
  },
  {
    "mutantCode": "CAUUU",
    "dataValue": 2.11
  },
  {
    "mutantCode": "CGAAA",
    "dataValue": 1.94
  },
  {
    "mutantCode": "AGAUA",
    "dataValue": 2.01
  },
  {
    "mutantCode": "GAAAC",
    "dataValue": 1.97
  },
  {
    "mutantCode": "CCAGU",
    "dataValue": 1.97
  },
  {
    "mutantCode": "CCCAC",
    "dataValue": 1.97
  },
  {
    "mutantCode": "AGGAA",
    "dataValue": 1.85
  },
  {
    "mutantCode": "GAUGU",
    "dataValue": 1.88
  },
  {
    "mutantCode": "UUAGC",
    "dataValue": 1.97
  },
  {
    "mutantCode": "AUGAG",
    "dataValue": 1.91
  },
  {
    "mutantCode": "UGCGC",
    "dataValue": 2.04
  },
  {
    "mutantCode": "GAAGG",
    "dataValue": 1.87
  },
  {
    "mutantCode": "UCCGU",
    "dataValue": 2.03
  },
  {
    "mutantCode": "AACCC",
    "dataValue": 2.04
  },
  {
    "mutantCode": "UCGCA",
    "dataValue": 1.96
  },
  {
    "mutantCode": "AACGG",
    "dataValue": 2
  },
  {
    "mutantCode": "AGUUC",
    "dataValue": 2
  },
  {
    "mutantCode": "CAGUA",
    "dataValue": 1.95
  }
]
